# Measurement target: Cytochrome P450 3A4 (Homo sapiens, UniProt P08684)
# Sequence (P08684 whole entry): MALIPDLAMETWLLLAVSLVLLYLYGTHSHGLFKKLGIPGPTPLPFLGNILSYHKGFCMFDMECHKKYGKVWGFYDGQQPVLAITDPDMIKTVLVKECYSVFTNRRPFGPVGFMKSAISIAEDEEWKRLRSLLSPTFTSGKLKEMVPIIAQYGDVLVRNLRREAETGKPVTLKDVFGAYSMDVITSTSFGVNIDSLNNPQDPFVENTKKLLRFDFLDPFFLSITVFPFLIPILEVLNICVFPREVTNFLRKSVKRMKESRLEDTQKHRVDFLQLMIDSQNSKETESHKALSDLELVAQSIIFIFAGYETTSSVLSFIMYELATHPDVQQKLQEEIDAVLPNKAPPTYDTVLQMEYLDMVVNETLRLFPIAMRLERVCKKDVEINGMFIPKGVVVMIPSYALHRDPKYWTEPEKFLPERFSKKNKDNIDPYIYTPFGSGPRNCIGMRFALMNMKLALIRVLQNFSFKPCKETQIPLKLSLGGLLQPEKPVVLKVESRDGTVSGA
# Experiment summary: Inhibition of CYP3A4 at 30 uM by FRET assay
# Format: ADME
Endpoint name: inhibition (INH) (%)

Consider the following illustrative entries.
**Q:** Quick one: inhibition (INH) of O=C(COc1ccccc1)NC(c1ccccc1C(F)(F)F)c1cc(Cl)c2cccnc2c1O (centres undefined) ?
**A:** 37

**Q:** Item N#Cc1ccccc1C(NC(=O)COc1ccccc1)c1cc(Cl)c2cccnc2c1O (centres undefined) has what recorded inhibition (INH)?
**A:** 26

**Q:** Give its inhibition (INH) value. Item: Cc1cc(OCC(=O)NC(c2ccccc2Cl)c2cc(Cl)c3cccnc3c2O)ccc1Cl (centres undefined)
**A:** 30

**Q:** # inhibition (INH) lookup, item O=C(COc1ccccc1)NC(c1ccccc1Cl)c1cc([N+](=O)[O-])c2cccnc2c1O (centres undefined)
**A:** 35

**Q:** Recorded inhibition (INH) for CN(CC(=O)NC(c1ccccc1Cl)c1cc(Cl)c2cccnc2c1O)Cc1ccccc1 (centres undefined) , please?
**A:** 16

I. O=C(COc1cc(Cl)cc(Cl)c1)NC(c1cccc([N+](=O)[O-])c1)c1cc(Cl)c2cccnc2c1O (centres undefined)
II. Cc1cc(C(NC(=O)COc2ccccc2)c2ccccc2Cl)c(O)c2ncccc12 (centres undefined)
III. Cc1ccc(C(NC(=O)CN(C)Cc2ccccc2)c2cc(Cl)c3cccnc3c2O)cc1 (centres undefined)
**Q:** Sequence the entries by inhibition (INH), beginning with the highest number. Quick reminder: the answer is the labels in the order asked.
**A:** II, III, I
(II: 55%, III: 30%, I: 20%)

----------
# Experiment summary: Metabolic stability in rat liver microsomes assessed as half life
# Type: ADME, Microsome
Endpoint name: half-life (min)

**Q:** Returns the measured half-life for the input compound. Input: Cc1ccc(C(NC(=O)CNCc2ccccc2)c2cc(Cl)c3cccnc3c2O)cc1 (stereo unspecified)
**A:** 10

**Q:** Quick check: half-life of Cc1cc(C(NC(=O)COc2ccccc2)c2cccc([N+](=O)[O-])c2)c(O)c2ncccc12 (stereo unspecified) ?
**A:** 6

**Q:** Fill in the blank: the reported half-life of Cc1cc(NCC(=O)NC(c2ccccc2Cl)c2cc(Cl)c3cccnc3c2O)ccc1Cl (stereo unspecified) is ____.
**A:** 8

**Q:** For COc1ccc(C(NC(=O)COc2cccnc2)c2cc(Cl)c3cccnc3c2O)cc1 (stereo unspecified) , what is its reported half-life?
**A:** 16

1. Cc1cc(OCC(=O)NC(c2cccc([N+](=O)[O-])c2)c2cc(Cl)c3cccnc3c2O)ccc1Cl (stereo unspecified)
2. CN(CC(=O)NC(c1cccc(F)c1)c1cc(Cl)c2cccnc2c1O)Cc1ccccc1 (stereo unspecified)
**Q:** Which gives the smaller half-life number: 1 or 2 ? Lab note: record the label of whichever item you select.
**A:** 2

----------
# Measurement target: UniProt P08684
# Experiment summary: Inhibition of CYP3A4 at 30 uM by FRET assay
# Format: ADME
Endpoint name: inhibition (INH) (%)

**Q:** Quick one: inhibition (INH) of O=C(COc1ccc(Cl)cc1)NC(c1ccccc1)c1cc(Cl)c2cccnc2c1O (stereo not given) ?
**A:** 2

**Q:** For Cc1ccc(C(NC(=O)CNc2cccc(N(C)C)c2)c2cc(Cl)c3cccnc3c2O)cc1 (stereo not given) , what is its reported inhibition (INH)?
**A:** 37

**Q:** Quick one: inhibition (INH) for CC(=O)Nc1ccc(OCC(=O)NC(c2cccc(F)c2)c2cc(Cl)c3cccnc3c2O)cc1 (stereo not given) ?
**A:** 31

**Q:** Report inhibition (INH) for CC(C)(C)c1ccc(OCC(=O)NC(c2ccccc2Cl)c2cc(Cl)c3cccnc3c2O)cc1 (stereo not given) please.
**A:** 10

**Q:** Please look up its inhibition (INH): CN(C)c1cccc(OCC(=O)NC(c2ccccc2Cl)c2cc(Cl)c3cccnc3c2O)c1 (stereo not given)
**A:** 38

1. Cc1cc(C(NC(=O)COc2ccccc2)c2cccc([N+](=O)[O-])c2)c(O)c2ncccc12 (stereo not given)
2. O=C(COc1ccccc1)NC(c1ccccc1)c1cc([N+](=O)[O-])c2cccnc2c1O (stereo not given)
**Q:** Which value of inhibition (INH) is smaller, the one for 1 or the one for 2 ? Could you answer with the label of the item you picked?
**A:** 2
(2: 20%, 1: 33%)

Source listed as ChEMBL document CHEMBL1141004.
